B1: H2-Kb / Ed8 (parent complex)
chain 1: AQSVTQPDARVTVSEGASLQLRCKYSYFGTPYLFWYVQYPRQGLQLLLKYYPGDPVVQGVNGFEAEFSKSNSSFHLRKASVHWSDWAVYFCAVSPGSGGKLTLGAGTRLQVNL
chain 2: DSGVVQSPRHIIKEKGGRSVLTCIPISGHSNVVWYQQTLGKELKFLIQHYEKVERDKGFLPSRFSVQQFDDYHSEMNMSALELEDSAMYFCASSPRASNYTFGSGTRLLVI
chain 3: not shown
chain 4: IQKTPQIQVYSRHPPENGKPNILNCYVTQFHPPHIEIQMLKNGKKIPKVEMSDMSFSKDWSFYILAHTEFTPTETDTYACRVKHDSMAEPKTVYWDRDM
chain 5: SIINFEKL

# Variants of: B1
# method.summary: % of reporter cells activated (NFAT-GFP), raw; also: test concentration or dose not given here
value.type: ratio to parent

See these solved cases before continuing.
chain 5 K7S | 0.898
chain 5 L8D | 0.903

1. chain 5 L8W
2. chain 5 E6L
3. chain 5 N4D
List the 3 entries from lowest ratio to parent to highest ratio to parent value. List labels; respect the requested ordering. 2, 3, 1
(2: 0.0522, 3: 0.436, 1: 0.95)

A. chain 5 N4C
B. chain 5 I3C
Consider entries A and B . Which has the numerically lower ratio to parent? Please indicate the selected item by its label. A
(A: 0.0721, B: 1.27)

I. chain 5 S1A
II. chain 5 E6H
Endpoint returns the identifier whose ratio to parent is numerically larger, either I or II . # answer = label of selected item I
(I: 1.28, II: 0.573)
